This collection of values is drawn from ChEMBL document CHEMBL1126971.

Target: Sex hormone-binding globulin (Homo sapiens)
Sequence (whole entry): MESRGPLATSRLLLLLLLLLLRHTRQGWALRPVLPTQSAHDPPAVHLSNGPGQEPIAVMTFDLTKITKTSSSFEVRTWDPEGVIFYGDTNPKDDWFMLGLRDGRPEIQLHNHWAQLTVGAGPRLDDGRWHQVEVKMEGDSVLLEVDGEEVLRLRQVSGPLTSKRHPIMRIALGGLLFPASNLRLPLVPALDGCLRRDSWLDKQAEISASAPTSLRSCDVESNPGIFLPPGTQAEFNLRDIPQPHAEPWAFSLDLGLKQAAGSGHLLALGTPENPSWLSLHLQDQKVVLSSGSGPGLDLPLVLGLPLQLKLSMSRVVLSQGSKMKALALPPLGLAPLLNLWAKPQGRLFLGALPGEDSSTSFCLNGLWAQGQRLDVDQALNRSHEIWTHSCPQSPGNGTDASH
Rule for this label: Satisfied means Log 1/K is less than 7; Not satisfied means Log 1/K is at least 7.

Consider CC(=O)[C@@]1(O)CC[C@H]2[C@@H]3CC=C4C[C@@H](O)CC[C@]4(C)[C@H]3CC[C@@]21C . Does its Log 1/K lie strictly below 7?
Satisfied

Also C[C@]12C[C@H](O)[C@H]3[C@@H](CCC4=CC(=O)CC[C@@]43C)[C@@H]1CC[C@@H]2C(=O)CO , if possible.
Satisfied

Could you do the same for C[C@]12CCC(=O)C=C1CC[C@@H]1[C@@H]2CC[C@]2(C)C(=O)CC[C@@H]12 , please?
Not satisfied

# iterate: C[C@]12CC[C@H](O)C[C@@H]1CC[C@@H]1[C@@H]2CC[C@]2(C)[C@@H](O)CC[C@@H]12
Not satisfied

// repeat for C[C@]12CC[C@H]3[C@@H](CCC4=CC(=O)CC[C@@]43C)[C@@H]1CC[C@@H]2C(=O)CO and report
Not satisfied

---

target: Sex hormone-binding globulin (Homo sapiens) (UniProt P04278)
readout-name: Log 1/K
Numbers only.

Answered cases to consult:
compound: C[C@]12CC[C@@H]3c4ccc(O)cc4CC[C@H]3[C@@H]1C[C@@H](O)[C@H]2O
Log 1/K: 6.63

compound: C[C@]12CCC(=O)C=C1CC[C@@H]1[C@@H]2[C@@H](O)C[C@@]2(C)[C@H]1CC[C@]2(O)C(=O)CO
Log 1/K: 6.2

compound: C[C@]12CC[C@H](O)CC1=CC[C@@H]1[C@@H]2CC[C@]2(C)C(=O)CC[C@@H]12
Log 1/K: 7.82

compound: CC(=O)[C@H]1CC[C@H]2[C@@H]3CCC4=CC(=O)CC[C@]4(C)[C@H]3CC[C@]12C
Log 1/K: 6.94

Please go through the list and note Log 1/K for each compound.
1. C[C@]12CCC(=O)C=C1CCC1C3CC[C@H](C(=O)CO)[C@@]34C[C@H](OC4O)C12 (stereo partly drawn)
2. C[C@]12CCC(=O)C=C1CC[C@@H]1[C@@H]2CC[C@@]2(C)[C@H]1CC[C@]2(O)C(=O)CO
3. C[C@]12CCC(=O)C=C1CC[C@@H]1[C@@H]2C(=O)C[C@@]2(C)[C@H]1CC[C@]2(O)C(=O)CO
4. CC(=O)[C@H]1CC[C@H]2[C@@H]3CC=C4C[C@@H](O)CC[C@]4(C)[C@H]3CC[C@]12C

[5.32, 7.2, 6.43, 7.15]
